Origin of values: PubChem BioAssay AID1996

assay_conditions: buffer; pH 7.4; 200.0 µM
observed_property: solubility kinetic

OC(CCNCCc1c[nH]c2ccccc12)C(F)(F)Cl (stereo not given): > 45.4 µg/mL
O=C(NCCCc1nc2ccccc2[nH]1)c1ccco1: > 40.4 µg/mL
FC(F)Sc1nc2ccccc2[nH]1: > 30 µg/mL
Cc1ccc2[nH]cc(S(=O)(=O)c3ccc(C)c(C)c3)c(=O)c2c1: < 0.7 µg/mL
O=C(NCc1cccnc1)C1CC(c2ccccc2O)=NO1 (stereo not given): > 44.6 µg/mL

* * *

assay_conditions: buffer; pH 7.4; 200.0 µM
observed_property: solubility kinetic

O=c1[nH]snc1N1CCOCC1: > 28.1 µg/mL
COc1ccc(CCNCc2cccn2C)cc1OC.Cl: > 46.6 µg/mL
COC(=O)C1=C(N)Oc2c(oc(CO)cc2=O)C1c1ccc(F)cc1 (stereo not drawn): > 52.1 µg/mL
Cc1cc(CNC(=O)c2ccc(C)c([N+](=O)[O-])c2)c2ccccc2n1: 20.1 µg/mL
Cn1nc(C(F)(F)F)c2cc(C(=O)N3CCOCC3)sc21: > 47.9 µg/mL
COc1ccc(C(=O)NC23CC4CC(CC(C4)C2)C3)cc1OC: 2.9 µg/mL
COc1cccc(OC)c1C(=O)Nc1ccc(N2CCCC2)cc1: 46.9 µg/mL
Cl.N=c1ccccn1Cc1ccccc1: > 33.1 µg/mL

* * *

assay_conditions: buffer; pH 7.4; 200.0 µM
solubility kinetic listing for selected molecules.
observed_property: solubility kinetic

Cl.O=C(O)CC1(CC(=O)N2CCN(CCO)CC2)CCCC1: > 50.2 µg/mL
C[C@@H](C(=O)Nc1ccc(OC(F)F)c(Cl)c1)N1C(=O)C2CC=CCC2C1=O (stereo partly specified): > 59.8 µg/mL
NS(=O)(=O)c1ccc(NC(=O)C(=O)NCCC(=O)O)cc1: > 47.3 µg/mL
O=C(Nc1cccnc1)OC1CCCCC1: > 33 µg/mL
Cc1ccc(-n2nc3c(c2NC(=O)C(C)C)CS(=O)(=O)C3)c(C)c1: > 52.1 µg/mL
CCCC(=O)OCC[N+](C)(C)C.[Cl-]: > 31.5 µg/mL

* * *

assay_conditions: buffer; pH 7.4; 200.0 µM
observed_property: solubility kinetic

Cc1ccc(NC(=S)NCc2ccco2)c(C)c1: > 39.1 µg/mL
CCc1cccc(C)c1NC(=O)CSc1nnc(C)o1: > 43.7 µg/mL
N#Cc1c(C(F)(F)F)cc(=O)[nH]c1SCC(=O)O: > 41.7 µg/mL
Cn1c(/C=C/c2ccc(Br)cc2)nc2ccccc2c1=O: < 0.4 µg/mL
CSc1ncccc1C(=O)NCC(c1ccco1)N1CCCCC1 (stereo not given): > 51.8 µg/mL
O=C(NCCOc1ccccc1)C(=O)NCC1CCCO1 (stereo not given): > 43.9 µg/mL
COCC(C)NC(=O)c1cc2cccc([N+](=O)[O-])c2[nH]1 (stereo not given): > 41.6 µg/mL
COc1ccc(C(=O)NCC2CCCCC2)cc1S(=O)(=O)N1CCOCC1: > 59.5 µg/mL
O=C1CNC(=O)/C(=C\c2ccccc2)N1: > 30.3 µg/mL
O=C(COC(=O)c1ccc(Cl)nc1)NCCc1ccc(F)cc1: > 50.5 µg/mL
O=C(CCc1c[nH]c2ccccc12)OCc1cccc([N+](=O)[O-])c1: < 0.3 µg/mL
COc1cc(/C=C2/CC(C)OC2=O)c([N+](=O)[O-])cc1OC (stereo not given): > 44 µg/mL
COC(=O)c1ccc(OCC(O)CN2CCOCC2)cc1 (stereo not given): > 44.3 µg/mL
CC(NC(=O)CCC(=O)N1CCCCCC1)c1ccccc1 (stereo not given): > 45.4 µg/mL
COc1nc(-c2ccccc2)nc(C)c1CC(=O)O: > 38.7 µg/mL
Cc1csc(C)[n+]1CC(=O)c1ccccc1.[Br-]: > 46.8 µg/mL
Cc1ccccc1C(=O)c1c[nH]c(C(=O)NCCc2ccccn2)c1: > 50 µg/mL
O=C(c1ccccc1)c1ccccc1N1C(=O)C=CC1=O: > 41.6 µg/mL
Cc1nnc(SCC(=O)N(C)C2CCCCC2)n1C: > 42.4 µg/mL
Nc1ncc([N+](=O)[O-])c(Oc2ccccc2F)n1: > 37.5 µg/mL
CC(=O)Nc1ccc(S(=O)(=O)N(C)CC(=O)OCC(=O)c2ccc[nH]2)cc1: > 59 µg/mL
CN1CCC(=NOc2ccc([N+](=O)[O-])cc2)CC1: > 37.4 µg/mL
COc1cc(/C=C/C(=O)O)cc(S(=O)(=O)Nc2cc(C(F)(F)F)ccc2N2CCOCC2)c1OC: > 77.5 µg/mL
O=C(COC(=O)CC1CCS(=O)(=O)C1)Nc1ccc(F)cc1 (stereo not given): > 49.4 µg/mL
CN1C(=O)CSC1=Nc1cccc(C(=O)O)c1: > 37.5 µg/mL
